- assayed_system: VEGF-165 (Homo sapiens, UniProt P15692-4 P15692-4:27-191)
- Sequence (P15692 other isoform, or with tags, fused parts or gaps): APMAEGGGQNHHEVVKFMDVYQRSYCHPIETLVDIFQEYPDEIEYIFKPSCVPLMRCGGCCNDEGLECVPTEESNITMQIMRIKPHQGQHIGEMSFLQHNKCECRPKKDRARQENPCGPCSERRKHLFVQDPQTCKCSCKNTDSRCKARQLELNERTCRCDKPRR
- test_protocol: SPR; printed as uM, evidently pM; existing aptamer control
- condition_summary: tags: PeproTech; chain copies: 2 (dimer, concentrations stated in terms of dimer)
quantity_name: Kd (nM)

[[record]]
binder = "contVG-57 (ssDNA) DNA: TCTGTCAATCGATCGTATCAGTCCACAAGCCCGTCTTCCAGACAAGAGTGCAGGGC"
experimental_result = 0.046

